tested on: NB4 and MONOMAC6 cells; experiment: Cell proliferation assay, NB4 and MONOMAC6; format: cell-based; details: Homo sapiens, MONO-MAC-6, 72 h, read-out: IC50, anti-proliferative activity
MEASUREMENT_TYPE: IC50

Reported IC50 for Cc1noc(C)c1-c1cc(Cl)c(Nc2ccccc2C(=O)NO)c(Cl)c1 [FB23-2] was 800 to 1500 nM

====

assay: Pharmacokinetics in SD rats; assay type: in vivo; details: male, Sprague Dawley, rat, plasma, ip, 3 mg/kg
MEASUREMENT_TYPE: Cmax (ng/mL)
Numeric only. Scale: ng/mL

Per the record, `Cc1noc(C)c1-c1cc(Cl)c(Nc2ccccc2C(=O)NO)c(Cl)c1` has Cmax of 2420
